target: 11-beta-hydroxysteroid dehydrogenase 1 (Homo sapiens, UniProt P28845); experiment: Inhibition of human 11beta-HSD1 expressed in HEK293 cell microsomes assessed as inhibition of [3H]cortisone conversion to [3H]cortisol by scintillation proximity assay; design: species or system Microsome
Sequence (P28845 whole entry): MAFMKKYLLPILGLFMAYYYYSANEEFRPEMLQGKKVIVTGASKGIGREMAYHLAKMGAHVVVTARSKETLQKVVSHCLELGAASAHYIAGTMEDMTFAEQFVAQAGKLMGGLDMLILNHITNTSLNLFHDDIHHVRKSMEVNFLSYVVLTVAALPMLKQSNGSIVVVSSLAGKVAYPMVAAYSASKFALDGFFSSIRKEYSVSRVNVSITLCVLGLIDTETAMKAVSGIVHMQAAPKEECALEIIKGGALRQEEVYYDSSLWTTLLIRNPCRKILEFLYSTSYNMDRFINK
Define the label as Met when IC50 is strictly less than 300 nM and as Not met in all remaining cases.

- CPD_SMILES: "C=C1[C@H]2CC[C@H]3[C@]4(C)CCC[C@@](C)(C(=O)O)[C@H]4CC[C@]3(C2)[C@H]1O"
  QUALITATIVE_LABEL: "Not met"
- CPD_SMILES: "C=C1[C@H]2C[C@H](OC(C)=O)[C@H]3[C@]4(C)CCC[C@@](C)(C(=O)O)[C@H]4CC[C@]3(C2)[C@@H]1O"
  QUALITATIVE_LABEL: "Met"
- CPD_SMILES: "C=C1C[C@@]23CC[C@H]4[C@@](C)(CCC[C@@]4(C)NC(=O)Nc4ccc(F)cc4)[C@@H]2CC[C@H]1C3"
  QUALITATIVE_LABEL: "Not met"
- CPD_SMILES: "C[C@@]1(CO)CCC[C@]2(C)[C@@H]1CC[C@@]13C[C@H](CC[C@H]12)[C@@](O)(CO)C3"
  QUALITATIVE_LABEL: "Not met"
- CPD_SMILES: "C=C1C[C@@]23CC[C@@H]4[C@](C)(CO)CCC[C@@]4(C)[C@@H]2CC[C@H]1C3"
  QUALITATIVE_LABEL: "Not met"
- CPD_SMILES: "C=C1[C@H]2C[C@H](O)[C@H]3[C@]4(C)CCC[C@@](C)(NC(=O)Nc5ccc(F)cc5)[C@H]4CC[C@]3(C2)[C@@H]1O"
  QUALITATIVE_LABEL: "Met"
- CPD_SMILES: "C=C1C[C@@]23CC[C@H]4[C@@](C)(CCC[C@@]4(C)NC(=O)NC45CC6CC(CC(C6)C4)C5)[C@@H]2CC[C@H]1C3"
  QUALITATIVE_LABEL: "Not met"
- CPD_SMILES: "C=C1[C@H]2C[C@H](O)[C@H]3[C@]4(C)CCC[C@@](C)(NC(=O)NC56CC7CC(CC(C7)C5)C6)[C@H]4CC[C@]3(C2)[C@@H]1O"
  QUALITATIVE_LABEL: "Not met"
- CPD_SMILES: "C[C@@]12CCC[C@@](C)(C(=O)O)[C@H]1CC[C@@]13C[C@H](CC[C@H]12)[C@@](O)(CO)C3"
  QUALITATIVE_LABEL: "Not met"
- CPD_SMILES: "C=C1[C@H]2C[C@H](O)[C@H]3[C@]4(C)CCC[C@@](C)(NC(=O)Nc5cccc6ccccc56)[C@H]4CC[C@]3(C2)[C@@H]1O"
  QUALITATIVE_LABEL: "Met"
- CPD_SMILES: "C=C1[C@H]2C[C@H](O)[C@H]3[C@]4(C)CCC[C@@](C)(NC(=O)NC5CCCCC5)[C@H]4CC[C@]3(C2)[C@@H]1O"
  QUALITATIVE_LABEL: "Met"
- CPD_SMILES: "C=C1[C@H]2C[C@H](OC(=S)SC)[C@H]3[C@]4(C)CCC[C@@](C)(C(=O)O)[C@H]4CC[C@]3(C2)[C@@H]1O"
  QUALITATIVE_LABEL: "Not met"
- CPD_SMILES: "C=C1[C@H]2C[C@H](O)[C@H]3[C@]4(C)CCC[C@@](C)(NC(=O)Nc5ccccc5)[C@H]4CC[C@]3(C2)[C@@H]1O"
  QUALITATIVE_LABEL: "Met"
